Parameter: pIC50. Scope: all listed entries.
# System: MCF7
# Experiment notes: Cytotoxicity against human MCF7 cells after 4 days by MTT assay
# Assay type: cell-based
# Condition summary: MCF7, 96 h
pIC50: −log10 of the molar value.

O=C(NO)C(CCCc1cccc(Oc2ccccc2)c1)P(=O)(O)O (configuration not stated) | < 3.52
CN(CCCc1cccc(Oc2ccccc2)c1)C(=O)CP(=O)(O)O | < 3.52
O=C(CP(=O)(O)O)N(O)CCCc1cccc(Oc2ccccc2)c1 | < 3.52
O=C(CP(=O)(O)O)NCCCc1cccc(Oc2ccc(Cl)c(Cl)c2)c1 | < 3.52
O=C(CP(=O)(O)O)NCCc1cccc(Oc2ccccc2)c1 | < 3.52

-- ask Look up pIC50 for this compound: `O=C(CP(=O)(O)O)N(O)CCCc1cccc(Oc2ccc(Cl)c(Cl)c2)c1`
-- reply < 3.52
